# Method Summary: in vitro
# Condition Parameters: rat, microsomes, pH 7.4
Consider the following compounds; for each one, report its half-life at 1 μM.
Report only the number, with the unit h understood.

Given the compound CC(C)c1cc(Oc2c(Cl)cc(-n3nc(C#N)c(=O)[nH]c3=O)cc2Cl)n[nH]c1=O [Control compound 2, MGL-3196, reference compound] , what is its reported half-life at 1 μM?
12.8

Given the compound CC(C)c1cc(Oc2c(Cl)cc(-n3nc(CF)c(=O)[nH]c3=O)cc2Cl)n[nH]c1=O , what is its reported half-life at 1 μM?
12.3

* * *

# Method Summary: in vitro
# Condition Parameters: mouse, microsomes, pH 7.4
Reported Endpoint: microsomal CLint at 1 μM (µL/min/mg)
Report only the number, with the unit µL/min/mg understood.

Given the compound CC(C)c1cc(Oc2c(Cl)cc(-n3nc(CF)c(=O)[nH]c3=O)cc2Cl)n[nH]c1=O , what is its reported microsomal CLint at 1 μM?
18.5

All values here come from patent US20230089582A1.
